Values from the DeepSol protein solubility set

# assay.procedure: soluble on expression in E. coli; label from the status in PepcDB or PDB records
observable: soluble on expression in E. coli

Use these answered entries as a reference point.
MRTVSTVAELRAALPREGVGFVPTMGYLHRGHLALVERARRENPFVVVSVFVNPLQFGPGEDYHRYPRDLERDRALLQEAGVDLLFAPGVEEMYPEGFATRVQVEGPLTALWEGAVRPGHFQGVATVVARLFLLVQPQRAYFGEKDYQQLLVVRRMVRDLGFPVEVVGVPTVREEDGLALSSRNVYLSPETRKKAPVLYRALLAMREVAGQGGSVAEALRAGEEALRAVPEFRKDYLAIVHPETLLPLSDWVAGARGIVAGRFPEARLIDNLEVYP    soluble
MAHHHHHHMRHSTYVEVCLRNIAYNVECIRRIAGKAELIPMVKGNAYGHGMGKVSEYLHNVCGVHTFGVASLGEALELIESQPSIAEKAQNEIFVFSDTEVLNEGCQSYYQPCGRWAVRLTPILGTLPQLKAFCASNAFNNTKLCLKLETGMNRLGLRFDELEEAVPILKQRGGVDLLLQHFGIAGSVERLAETLNHYEAFKNAKKFLHDSGVEVRATSVSNSGAVEQRIGLEETYIRPGIMLYGPRSVTSKNLWNGKFASCFYTKVLHHFPLRKGEGVGYDLTPVKADSVIVMLPIGYADGFLCTYKGMPIKVTPEDAAEPIIGTVHGRINMDMAAVVVYPEEVGKNIGNIMAAVKKESRIHVWGDDIEEKAVSVGAIPHQLTCGLSIRVPRIYM    not soluble
MVEISKRIISTFGKTNAHFKLITENDRVLVGLSGGKDSLLLATLLARLARHAPFKFEFKALTVDYGIGEDFSYLQNYCAENGIPHEVFKTNIMEVMQEKRRENSSYCSFCSRLRRGALYSKALEGGYNKLALGHHLDDAAESFFMNFSYNGAIRSMPPIYRAYNGLWVIRPLIWLRERQMVDFVLKNNLQTPLCNC    not soluble
MEMVNAEAKQSVPLLTPYKMGRFNLSHRVVLAPLTRQKSYGSVPQPHAILYYSQRTSPGGFLIAEATGVSDTAQGYPDTPGIWTKEHVEAWKPIVDAVHAKGGIFFCQIWHVGRVSNRGFQPRRQAPISCTGKPIMPQMRANGIDEARFTPPRRLSIEEIPGIVNDFRLAARNAMEAGFDGVEIHGAHGYLIDQFMKDKVNDRTDEYGGSLQNRCKFALEVVDAVAKEIGPDRVGIRLSPFADYMESGDTNPEALGLYMVESLNKYGILYCHMIEPRMKTVGEIAACSHTLMPMREAFKGTFISAGGFTREDGNEAVAKGRTDLVAYGRWFLANPDLPKRFQLDAPLNKYNRSTFYTSDPVVGYTDYPSLESTA    soluble
MGSDKIHHHHHHMIVNQANLQGIYKSFNTIFNQAFDAAPSQWPLVAMQVPSTGRSVDYKWLGDFPMMREWLGDRVLKDLSAFKYEITNKDYESTIEVDRNDIDDDQIGVYTPMIQGLAQAAKVHPDILVFALLKAGFDTGCFDGQYFFDSDHSVNGASVSNTGGGDGTPWYLLDLSRPIKPIVLQIRKRPQFVAMDKPDDENVFMRKKFRYGVDDRKNVGYGLWQLAYGSKQTLDATNYAAARAAMMAFTNDEGVPLGITPTHLVVPPTLESNGRTVVEAQFDANGASNVWYNTAKLVVVPWLA    not soluble
METFGVFHKEDDEQMDLPPGFRFHPTDEELITHYLHKKVLDLGFSAKAIGEVDLNKAEPWELPYKAKIGEKEWYFFCVRDRKYPTGLRTNRATQAGYWKATGKDKEIFRGKSLVGMKKTLVFYRGRAPKGQKTNWVMHEYRLDGKLSAHNLPKTAKNEWVICRVFHKTAGGKKIPISTLIRIGSYGTGSSLPPLTDSSPYNDKTKTEPVYVPCFSNQAETRGTILNCFSNPSLSSIQPDFLQMIPLYQPQSLNISESSNPVLTQEQSVLQAMMENNRRQNFKTLSISQETGVSNTDNSSVFEFGRKRFDHQEVPSPSSGPVDLEPFWNY    soluble

The sequence MLTEIGKIIRQRRQQHGITIEQLAEQSNVSISLISRLERGKVDNIKLQSLTAIAETLNLKIADFFRDELLQSPNVVALLDYLSDLPAHQREELAGTLLKLLRLSKS showed soluble on expression in E. coli equal to not soluble

Lookup result for MKLKAMYSFLSDDLAAVEEELERTVRSEYGPLGEAALHLLQAGGKRIRPVFVLLSARFGHYDFERIKHVAVALELIHMASLVHDDVIDDADVRRGRPTIKARWSNRFAMYTGDYLFARSLERMAELDSPRAHQVLAKTIVEVCHGEIEQIKDKYRFDQPLRTYLRRIRRKTALLIAASCQLGALAAGAPEAVANRLYWFGHCVGMSFQITDDILDFTGTEEQLGKPAGSDLQQGNVTLPVLYALCDEQVRAKITAVNADTDAEEMAAVLAAIKQTDAIERSYALSDRYLEKALRLLGELPANEARTLLHDLALYIGKRDY ; measured soluble on expression in E. coli: not soluble

Lab book: soluble on expression in E. coli of MGSDKIHHHHHHLSADHNAFRRALTERWGKAFGEPVIHEDPRTRSLCFGAPGVQSSMRTSDPLELDLPYTRAMMSFQLFCPDPKDILIVGLGGGSLSKYCFHKFPSARVTTVEIDERVIALRDAFFIPPESERFRIVHADAAAYLPDKVGLADVILLDGFDASGLPASLSSQYFYDCCHAALRDEGVLVANLLSSDPRLGAHLDRIHRACHGKLFRTMARREGNTIAIGIRQATWPGWPDLYARAEAITASTGLDLCRYVKKMERHHRVEPVSEHPSSDTLAVEQNR noted as not soluble

// soluble on expression in E. coli value for MKLDKYTVGKRYGKALFELAVEKNQAEAIYQELLTLREVYHQVPGIGDILSDDRLEPYEKDSIMEKLVTGFSEMMQNFLRVVYEYRRMYDLLLMIDEYERRYDEHQGLILGSVTTAIPLSKEQHQAMEEKAAQLLGYEQAHLVNLIDPSIVGGVVIEANHQVIDGSIRKQLEHMQQKLLK : not soluble

---

# assay.procedure: soluble on expression in E. coli; label from the status in PepcDB or PDB records
observable: soluble on expression in E. coli

MSLESKPVVFHDVPQDHWAFEAISDLGNAGIIAGYGHGIFGLGDDVTREQVAALIYRSMEGIEEKEEYENPYGDLDEHGSTLFLEEILALTEMGIFQGDEQGNFRPKDTLTRAEMAQVIATAFDLEVKAPHSFNDVPANSWAKDAISAVQSNQIAAGIGQGKFAPEMKVTREQYAQFLYNALTNEHAEEGHHHHHH    soluble
MGHHHHHHSHMKALSPVRGCYEAVCCLSERSLAIARGRGKGPAAEEPLSLLDDMNHCYSRLRELVPGVPRGTQLSQVEILQRVIDYILDLQVVLAEPAPGPPDGPHLPIQTAELAPELVISNDKRSFCH    not soluble
MSRVYTLLTGLLLSLIALSLQAAQLTASVDRTRLNAGETVELTLETDDVTQFGKPDMSSLEASFEVRDTRQLNSLKTLDGSSQATTRWIVTLLPRETGSVIIPSLQLGELKSQPLTLQVMQSETKEPTSHLASIFIEASLDQDSVYVQAQAVLTLRVYHSVSLFDDSSLN    not soluble
MGSDKIHHHHHHMKSQWECFLQNLGVWEGSFSNFSPEGTLLNDTSSRLCLEGLNNNQTVRLTLSRSGKDDVIREFRSVGGGLLFFENGSFSEGLIQLGPFSEFGGELAFVHENRRLRLVQLFDRNGHLNGLTLIREHLAGTPVAERPLLQINDLLGEWRGQAVTIYRDLRPPDIYSTTLKIQLDDAGRLMQSTSFGERTITSTATIKGSIVLFDQDPEKQVQVLLLPDGASATSPLKVQLRQPLFLEAGWLIQSDLRQRMIRSYNDKGEWVSLTLVTEERV    not soluble
MGSDKIHHHHHHMDREIFVSYSVSANSIAGWVAYGGSESFHDMSRGILAARIGIPRLLRMFRKFCIKSSWYVPGIVMETFPDEVRAIYADGHELGTHGYLHEYAPSMSYDQEERVIAKTAELVKDITGHNPYGHLPSQWEESVNTMRILMNHGYKYARGLEDDDFHPFYASTGRSWPRVDYSKLPETWMKPMNLGEKIDFVEIPINWFLNDGTYFNFNKHVPGKRPMSLSEVLENWKAAFDYVYREYEYAIFPVNIHPDTSGNPEVQIFHEKFISYILEHNGASFVSDSFIAEDFRKRYPFPHEFREKVDL    not soluble

So, MGSDKIHHHHHHVPDITIATERCIGCAECARDCPTGIIRMENGIPAVAPRREKRCIGCLHCVTVCPCGALSFRGVTPESCTPLKNRFPQPEALEILMKGRRSVRRFLPEAVDSALIRRTVDAAAHAPSGKNQRGLLFTVVDDPQTMNRLRHDTVEAVREALADGCSHPQTAFFQAALARWDTGTDIIFRNAPHLLWVTAPRTNTTAQADVHVALTYFELMAAACGLGTLWCGFATWAMSEIAPRIARGLGIPEAHTSGYVMLFGKPAVRYHRTAERGCDGFNRVVWPPAT ? Its soluble on expression in E. coli was not soluble
